Entries and their composite z-score
- ASSAY SYSTEM: Fibroblast growth factor 10 (Homo sapiens) (UniProt O15520)
- Sequence (O15520 whole entry, looked up): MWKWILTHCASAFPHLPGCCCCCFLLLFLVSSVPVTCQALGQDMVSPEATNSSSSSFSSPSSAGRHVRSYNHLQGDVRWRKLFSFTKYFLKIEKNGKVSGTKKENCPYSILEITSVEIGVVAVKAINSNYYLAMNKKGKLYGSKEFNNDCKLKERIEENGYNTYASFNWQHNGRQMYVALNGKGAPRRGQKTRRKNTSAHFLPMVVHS
- MEASUREMENT DESCRIPTION: compounds binding fibroblast growth factor 10 – biochemical, small-molecule microarray, 635 nm fluorescence, primary screen (AID 1102)
- APPLIED CONDITIONS: FGF10 binding, fluorescence 635 nm, higher = more signal
# respond with the number and nothing more

Recorded results for 5 molecules are shown here.
COc1ccc(NN2C(C(O)c3ccc(I)cc3)C=CC3C(=O)N(C4CCCCC4)C(=O)C32)cc1 (configuration not stated)    1.33
C=C(COC)C(=O)CC[C@H](OC(=O)c1cccnc1)c1ccc(OCCO)cc1    1.08
C=CCC(OC(C)=O)[C@@H]1[C@@H](N(Cc2cc3ccccc3o2)C(=O)c2cccc3ccccc23)c2cc(OCCCO)ccc2N1C(=O)c1ccc2ccccc2n1 (some centres not stated)    0.169
C=CCOC(=O)[C@H]1[C@@H]2C(=O)O[C@@H](c3ccccc3)[C@@H](c3ccccc3)N2[C@@H](c2ccc(OCCOC(=O)[C@H]3C[C@H]4C(=O)N[C@@H](CC(C)C)C(=O)N4[C@H]3c3ccc(O)cc3)cc2)[C@]12C(=O)Nc1ccccc12    1.47
CCOC(=O)c1cn(C[C@H](Cc2ccccc2)NC(=O)N[C@H](CO)CCc2oc(C(C)=O)c(C(=O)OC)c2C(=O)OC)nn1    1.37

Ask: Provide only the value of recorded composite z-score for CCOC(=O)C1=CCC(c2cc3ccccc3[nH]2)N(CCN2CC(C(=O)OCC)=CCC2c2cc3ccccc3[nH]2)C1 (configuration not stated)
Reply: 0.631

Ask: For O=C1C2C=CC(C(O)C3CCCCC3)N(n3cnnc3)C2C(=O)N1Cc1ccccc1 (configuration not stated) , write its composite z-score.
Reply: 1.16
